target: WT EZH2 (EZH2 4 protein complex: EZH2, EED, SUZ12, RbAp48) (Homo sapiens, UniProt O75530+Q09028+Q15022+Q15910); assay: WT EZH2 nucleosome assay; assay type: biochemical; conditions: nucleosome assay, 5 nM EZH2 4-protein complex, 1.5 μM SAM; read-out: WT EZH2 IC50
Sequence (Q15910 whole entry): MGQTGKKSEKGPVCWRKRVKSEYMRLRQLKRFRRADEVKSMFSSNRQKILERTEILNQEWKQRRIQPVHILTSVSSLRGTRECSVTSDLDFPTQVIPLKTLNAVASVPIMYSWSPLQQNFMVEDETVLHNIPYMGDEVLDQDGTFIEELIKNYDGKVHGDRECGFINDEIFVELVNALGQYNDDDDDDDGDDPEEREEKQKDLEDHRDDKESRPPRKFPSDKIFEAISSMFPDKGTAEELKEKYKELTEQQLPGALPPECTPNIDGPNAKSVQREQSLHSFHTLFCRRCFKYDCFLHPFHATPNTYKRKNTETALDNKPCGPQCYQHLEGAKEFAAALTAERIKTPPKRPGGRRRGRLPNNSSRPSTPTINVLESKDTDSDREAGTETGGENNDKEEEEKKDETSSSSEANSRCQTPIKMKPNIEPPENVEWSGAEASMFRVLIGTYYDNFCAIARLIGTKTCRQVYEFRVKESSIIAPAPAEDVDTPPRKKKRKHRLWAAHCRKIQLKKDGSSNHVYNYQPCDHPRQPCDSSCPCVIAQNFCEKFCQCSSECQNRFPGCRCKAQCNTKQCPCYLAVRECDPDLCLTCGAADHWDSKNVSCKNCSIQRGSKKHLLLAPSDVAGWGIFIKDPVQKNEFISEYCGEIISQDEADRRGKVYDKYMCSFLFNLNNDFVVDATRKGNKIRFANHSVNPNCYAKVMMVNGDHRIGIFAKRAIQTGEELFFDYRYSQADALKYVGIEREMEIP
Sequence (O75530 whole entry partner): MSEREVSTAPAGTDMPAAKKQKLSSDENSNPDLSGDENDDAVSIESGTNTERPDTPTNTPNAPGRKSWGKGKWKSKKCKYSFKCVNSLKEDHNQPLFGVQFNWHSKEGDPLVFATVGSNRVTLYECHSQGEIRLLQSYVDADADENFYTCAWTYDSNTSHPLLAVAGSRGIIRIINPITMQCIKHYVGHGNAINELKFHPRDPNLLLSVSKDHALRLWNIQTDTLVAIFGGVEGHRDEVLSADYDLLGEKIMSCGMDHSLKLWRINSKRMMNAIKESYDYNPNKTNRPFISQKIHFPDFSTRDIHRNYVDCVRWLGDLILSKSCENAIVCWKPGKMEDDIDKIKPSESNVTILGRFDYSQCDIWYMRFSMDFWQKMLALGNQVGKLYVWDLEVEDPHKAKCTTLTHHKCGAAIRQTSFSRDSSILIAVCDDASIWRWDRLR
Sequence (Q15022 whole entry partner): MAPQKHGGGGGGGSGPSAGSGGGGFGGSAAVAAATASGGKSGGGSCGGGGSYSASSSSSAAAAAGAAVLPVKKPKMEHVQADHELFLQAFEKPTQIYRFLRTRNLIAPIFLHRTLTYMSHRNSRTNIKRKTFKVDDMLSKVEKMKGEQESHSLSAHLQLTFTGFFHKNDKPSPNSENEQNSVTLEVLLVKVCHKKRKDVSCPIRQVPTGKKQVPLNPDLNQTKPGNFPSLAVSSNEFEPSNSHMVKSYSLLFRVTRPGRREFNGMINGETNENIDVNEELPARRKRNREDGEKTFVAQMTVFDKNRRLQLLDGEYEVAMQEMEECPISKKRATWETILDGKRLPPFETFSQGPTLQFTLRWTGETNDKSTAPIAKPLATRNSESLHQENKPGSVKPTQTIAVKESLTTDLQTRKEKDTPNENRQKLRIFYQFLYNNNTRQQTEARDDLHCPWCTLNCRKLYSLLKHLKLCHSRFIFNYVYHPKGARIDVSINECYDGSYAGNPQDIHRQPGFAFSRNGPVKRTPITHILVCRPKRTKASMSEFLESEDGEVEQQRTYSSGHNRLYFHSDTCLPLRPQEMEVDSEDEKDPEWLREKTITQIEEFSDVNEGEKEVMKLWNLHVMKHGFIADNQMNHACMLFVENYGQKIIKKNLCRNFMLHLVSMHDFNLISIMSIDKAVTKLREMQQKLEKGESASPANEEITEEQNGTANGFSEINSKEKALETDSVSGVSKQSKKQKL
Sequence (Q09028 whole entry partner): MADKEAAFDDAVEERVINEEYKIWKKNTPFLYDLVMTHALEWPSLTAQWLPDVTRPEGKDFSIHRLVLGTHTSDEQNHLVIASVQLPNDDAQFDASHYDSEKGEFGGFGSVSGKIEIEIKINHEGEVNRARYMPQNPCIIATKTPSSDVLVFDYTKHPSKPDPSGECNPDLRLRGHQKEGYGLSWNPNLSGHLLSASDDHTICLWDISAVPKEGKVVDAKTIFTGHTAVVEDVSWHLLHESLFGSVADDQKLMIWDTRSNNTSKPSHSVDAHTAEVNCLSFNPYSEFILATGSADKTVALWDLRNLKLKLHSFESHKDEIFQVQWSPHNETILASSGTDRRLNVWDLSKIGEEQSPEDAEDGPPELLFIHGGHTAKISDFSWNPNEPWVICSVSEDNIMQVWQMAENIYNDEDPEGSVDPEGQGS
Recorded Endpoint: IC50 (µM)

Cc1cc(C)c(CNC(=O)c2ccnc(OC(C)C)c2F)c(=O)[nH]1 [Example 138] :: 172
COc1ncc(-c2cc(C(=O)NCc3c(C)cc(C)[nH]c3=O)c(C)c(-c3c(C)cnn3C)c2)cn1 [Example 25] :: 0.16
Cc1cc(C)c(CNC(=O)c2cc(Cl)cc(-c3c(C)cnn3C)c2C)c(=O)[nH]1 [Example 7] :: 0.22
Cc1cc(C)c(CNC(=O)c2c(Cl)ccc(OCCN3CCCC3)c2Cl)c(=O)[nH]1 [Example 129] :: 54.3

[I] CC(=O)N1C2CCC1c1cc(-c3cc(C(=O)NCc4c(C)cc(C)[nH]c4=O)c(C)c(-c4ccnn4C)c3)ccc12 (centres unmarked) [Example 6]
[II] Cc1cc(C)c(CNC(=O)c2ncnc(N3CCCC3C(C)C)c2C)c(=O)[nH]1 (centres unmarked) [Example 112]
Q: Compare the recorded IC50 of I and II ; state which is larger. Reply with the label of the item you choose.
Result: II

[A] Cc1cc(C)c(CNC(=O)c2cc(-c3cnc(N4C[C@@H]5C[C@H]4CO5)nc3)cc(-c3c(C)cnn3C)c2C)c(=O)[nH]1 [Example 22]
[B] Cc1cc(C)c(CNC(=O)c2cc(-c3cnc(N4C5CCC4COC5)nc3)cc(-c3c(C)cnn3C)c2C)c(=O)[nH]1 [Example 23]
Q: Lower value for measured IC50? Options: A , B Reply with the label of the item you choose.
Result: B
(B: 0.015 µM, A: 0.027 µM)

[P] Cc1cc(C)c(CNC(=O)c2cc(C3=CCOCC3)cc(C3=CCOCC3)c2C)c(=O)[nH]1 [Example 42]
[Q] Cc1cc(C)c(CNC(=O)c2ncnc(N3CCC(C)(C)C3)c2C)c(=O)[nH]1 [Example 73]
Q: Compare the recorded IC50 of P and Q ; state which is larger. Reply with the label of the item you choose.
Result: Q
(Q: 6.5 µM, P: 1.12 µM)

[I] Cc1cc(C)c(CNC(=O)c2ncnc(-c3ccnn3C)c2Cl)c(=O)[nH]1 [Example 115]
[II] Cc1cc(C)c(CNC(=O)c2ncnc(N3CCCC3(C)C)c2C)c(=O)[nH]1 [Example 59]
Q: Compare the recorded IC50 of I and II ; state which is larger. Reply with the label of the item you choose.
Result: I
(I: 28.7 µM, II: 3.91 µM)

---

target: EZH2PRC2 mutant Y641N (Homo sapiens, UniProt Q15910, Y641N); assay: EZH2PRC2 mutant Y641N nucleosome assay; details: read-out: EZH2PCR2 Mutant Y641N IC50
Sequence (Q15910 whole entry Y641N): as the sequence (Q15910 whole entry) above, with Y641N counted along it
Sequence (O75530 whole entry partner): as the sequence (O75530 whole entry partner) above
Sequence (Q15022 whole entry partner): as the sequence (Q15022 whole entry partner) above
Sequence (Q09028 whole entry partner): as the sequence (Q09028 whole entry partner) above
Recorded Endpoint: IC50 (µM)

[a] CC(=O)N1C2CCC1c1cc(-c3cc(C(=O)NCc4c(C)cc(C)[nH]c4=O)c(C)c(-c4ccnn4C)c3)ccc12 (stereo not drawn)
[b] Cc1cc(C)c(CNC(=O)c2cc(-c3ccc(N4CCN(C)CC4)nc3)cc(-c3ccnn3C)c2C)c(=O)[nH]1
[c] Cc1cc(C)c(CNC(=O)c2nc(Cl)nc(N3CCN(C)C[C@@H]3C)c2C)c(=O)[nH]1
[d] Cc1cc(C)c(CNC(=O)c2ncnc(N3[C@@H](C)COC[C@@H]3C)c2C)c(=O)[nH]1
Q: Descending sort on IC50 required. Put the labels in the order asked and list them.
Result: d, c, a, b

[P] CNc1ncc(-c2cc(C(=O)NCc3c(C)cc(C)[nH]c3=O)c(C)c(-c3ccnn3C)c2)cn1
[Q] COCc1cc(C)[nH]c(=O)c1CNC(=O)c1cc(Cl)cc(-c2ccnn2C)c1C
[R] Cc1cc(C)c(CNC(=O)c2nc(Cl)nc(N3CCC[C@@H]3C)c2C)c(=O)[nH]1
[S] Cc1cc(C)c(CNC(=O)c2cccc(OC(C)C)c2C)c(=O)[nH]1
[T] Cc1cc(C)c(CNC(=O)c2ccnc(N3CCC[C@H]3C)c2Cl)c(=O)[nH]1
Q: Put the entries in order of IC50, starting with the largest number. Put the labels in the order asked and list them.
Result: T, Q, S, R, P
(T: 86 µM, Q: 26.7 µM, S: 11.2 µM, R: 7.81 µM, P: 0.64 µM)

[P] Cc1cc(C)c(CNC(=O)c2cc(-c3ccc(CN4CCOCC4)cc3)cc(-c3ccnn3C)c2C)c(=O)[nH]1
[Q] Cc1cc(C)c(CNC(=O)c2nc(Cl)nc(N3CCOC[C@@H]3C)c2C)c(=O)[nH]1
[R] Cc1cc(C)c(CNC(=O)c2nc(N3CCCC3)nc(N3CCC[C@@H]3C)c2C)c(=O)[nH]1
Q: Ascending by IC50, please. Put the labels in the order asked and list them.
Result: P, Q, R
